Source: the supplement of paper PMC10127200

Catalogue of Euclidean distance values
- System: A549
- protocol.text: Euclidean distance of Cell Painting phenotypic profile (signed KS, 77 features) to DMSO centroid (dimensionless distance); 5 or 10 uM (library dependent); higher = stronger phenotypic change vs DMSO (phenoactivity)
- conditions: 48 h

Worked examples follow.
INSERT INTO measurements (compound, measured_on, result) VALUES
  ('C[N+]1(C)[C@@H]2CC[C@H]1C[C@@H](OC(=O)C(O)c1ccccc1)C2 (some centres undefined) [Homatropine Methylbromide]', 'A549', 1.85),
  ('C[C@@]1(C(=O)Nc2ccc(F)nc2)CCCN1c1nc(Nc2cc(C3CC3)n[nH]2)c2cccn2n1', 'A549', 3.2),
  ('Cc1cccc(-c2nn3c(c2-c2ccnc4ccc(C(N)=O)cc24)CCC3)n1', 'A549', 1.06);

Shift focus to the following entry.
Note to self: Euclidean distance recorded for CCC(=O)NS(=O)(=O)c1ccc(-c2c(-c3ccccc3)noc2C)cc1 [Parecoxib Sodium] was 0.521

----------
- Test system: FB
- protocol.text: Euclidean distance of Cell Painting phenotypic profile (signed KS, 77 features) to DMSO centroid (dimensionless distance); 5 or 10 uM (library dependent); higher = stronger phenotypic change vs DMSO (phenoactivity)
- conditions: 48 h
Where a name gives a salt, the structure may show the parent alone.
Catalogue of Euclidean distance values

INSERT INTO results (compound, result) VALUES
  ('O=[N+]([O-])c1ccc2c(c1)S(=O)(=O)C=C2', 3.89),
  ('CC(=O)[C@H]1CC[C@H]2[C@@H]3CC=C4C[C@@H](O)CC[C@]4(C)[C@H]3CC[C@]12C', 1.07),
  ('Nc1ncnc2c1c(-c1cnc3[nH]ccc3c1)nn2C1CCCC1', 4.32);

Note to self: Euclidean distance recorded for `Cc1cc(OCCCS(C)(=O)=O)cc(C)c1-c1cccc(COc2ccc3c(c2)OC[C@H]3CC(=O)O)c1` was 2.38

Note to self: Euclidean distance recorded for `O=C(O)c1ccccc1O` was 0.648

Note to self: Euclidean distance recorded for `CN(C)C(=O)[C@H](O)[C@H](Cc1ccccc1)NC(=O)c1cc2cc(Cl)ccc2[nH]1` was 1.01

Note to self: Euclidean distance recorded for `O=C(/C=C/c1ccc(O)c(O)c1)O[C@@H]1C[C@](O)(C(=O)O)C[C@@H](O)[C@H]1O` was 1.17

Note to self: Euclidean distance recorded for `O=c1cc(-c2ccccc2)oc2cc(O)cc(O)c12` was 1

Note to self: Euclidean distance recorded for `CN1CCN(c2nc(C3=C(c4c[nH]c5ccccc45)C(=O)NC3=O)c3ccccc3n2)CC1` was 2.47

Note to self: Euclidean distance recorded for `OC[C@H]1O[C@@H](c2ccc(F)c(Cc3cc4ccccc4s3)c2)[C@H](O)[C@@H](O)[C@@H]1O` was 0.802

Note to self: Euclidean distance recorded for `O=C(NCCO[N+](=O)[O-])c1cccnc1` was 1.09

Note to self: Euclidean distance recorded for `CC(C)[C@H](C(=O)Nc1ccc(C(=O)NO)cc1)c1ccccc1` was 4.34

Note to self: Euclidean distance recorded for COc1cc2c(cc1OC)CC(=O)N(CCCN(C)C[C@H]1Cc3cc(OC)c(OC)cc31)CC2 [Ivabradine HCl] was 0.867

----------
- Test system: A549
- protocol.text: Euclidean distance of Cell Painting phenotypic profile (signed KS, 77 features) to DMSO centroid (dimensionless distance); 5 or 10 uM (library dependent); higher = stronger phenotypic change vs DMSO (phenoactivity)
- conditions: 48 h
Where a name gives a salt, the structure may show the parent alone.
Values of Euclidean distance greater than or equal to 1 map to TRUE; values below map to FALSE.

Take a look at these entries with their results.
INSERT INTO assay_data (compound, measured_on, class_label) VALUES
  ('CC(C)CCN1c2nc(Nc3cc(F)c(O)c(F)c3)ncc2N(C)C(=O)C1C (configuration not stated)', 'A549', 'TRUE'),
  ('C[n+]1cc2c3c(ccc2c2ccc4cc5c(cc4c21)OCO5)OCO3 [Sanguinarine chloride]', 'A549', 'TRUE'),
  ('O=S1(=O)CCN(CN2CCS(=O)(=O)NC2)CN1', 'A549', 'FALSE'),
  ('NC1CCN(c2nc3c(cc2F)c(=O)c(C(=O)O)cn3-c2ccc(F)cc2F)C1 (configuration not stated) [Tosufloxacin p-Toluenesulfonate Hydrate]', 'A549', 'TRUE'),
  ('CN(C)CCC=C1c2ccccc2C(C)(C)c2ccccc21 [Melitracen hydrochloride]', 'A549', 'TRUE');

Request: Item `CC1(C)CC(=O)c2c(C(F)(F)F)nn(-c3ccc(C(N)=O)c(N[C@H]4CC[C@H](OC(=O)CN)CC4)c3)c2C1` with Euclidean distance of 1 or above?
Result: TRUE

Request: Item COc1ccc2cc3[n+](cc2c1OC)CCc1cc2c(cc1-3)OCO2 [Berberine chloride] with Euclidean distance of 1 or above?
Result: TRUE

----------
Catalogue of Euclidean distance values
- System: OVCAR4
- protocol.text: Euclidean distance of Cell Painting phenotypic profile (signed KS, 77 features) to DMSO centroid (dimensionless distance); 5 or 10 uM (library dependent); higher = stronger phenotypic change vs DMSO (phenoactivity)
- conditions: 48 h
Answer with a number only.

Worked examples follow.
INSERT INTO assay_data (molecule, result) VALUES
  ('O=C1CN(/N=C/c2ccc(-c3ccc([N+](=O)[O-])cc3)o2)C(=O)N1 [Dantrolene sodium hemiheptahydrate]', 1.31),
  ('Cc1cc2c(cc1CC(=O)c1sccc1S(=O)(=O)Nc1onc(C)c1Cl)OCO2 [Sitaxentan sodium]', 1.46),
  ('CC(=O)Oc1ccccc1C(=O)O', 0.816);

Note to self: Euclidean distance recorded for CN(CCOc1ccc(CC2SC(=O)NC2=O)cc1)c1ccccn1 (stereo not given) [Rosiglitazone] was 1.14

Note to self: Euclidean distance recorded for `COc1ccc2cc1Oc1ccc(cc1)C[C@H]1c3c(cc4c(c3Oc3cc5c(cc3OC)CCN(C)[C@@H]5C2)OCO4)CCN1C` was 3.87

Note to self: Euclidean distance recorded for `CCn1cc(C(=O)O)c(=O)c2cc(F)c(N3CCNCC3)nc21` was 1.35

Note to self: Euclidean distance recorded for `COc1cc2c(N3CCN(C(=O)Nc4ccc(OC(C)C)cc4)CC3)ncnc2cc1OCCCN1CCCCC1` was 1.12

----------
- Test system: HEPG2
- protocol.text: Euclidean distance of Cell Painting phenotypic profile (signed KS, 77 features) to DMSO centroid (dimensionless distance); 5 or 10 uM (library dependent); higher = stronger phenotypic change vs DMSO (phenoactivity)
- conditions: 48 h
Where a name gives a salt, the structure may show the parent alone.
Values of Euclidean distance greater than or equal to 0.8 map to 1; values below map to -1.

Take a look at these entries with their results.
INSERT INTO results (compound, measured_on, class_label) VALUES
  ('Cc1ncc(C[n+]2csc(CCO)c2C)c(N)n1 [Thiamine HCl (Vitamin B1)]', 'HEPG2', 1),
  ('CCCN[C@H]1CCc2nc(N)sc2C1 [Pramipexole 2HCl Monohydrate]', 'HEPG2', 1);

Request: Item Clc1cccc(Cl)c1NC1=NCCN1 [Clonidine HCl] with Euclidean distance of 0.8 or above?
Result: 1

Request: Item `CC[C@@H]([C@H](C)O)n1ncn(-c2ccc(N3CCN(c4ccc(OC[C@@H]5CO[C@@](Cn6cncn6)(c6ccc(F)cc6F)C5)cc4)CC3)cc2)c1=O` with Euclidean distance of 0.8 or above?
Result: 1

Request: Item CCCCc1oc2ccccc2c1C(=O)c1cc(I)c(OCCN(CC)CC)c(I)c1 [Amiodarone HCl] with Euclidean distance of 0.8 or above?
Result: 1

Request: Item `O=C(c1ccc(F)cc1)N1CCC[C@H](c2nc(-c3ccc(F)cc3)no2)C1` with Euclidean distance of 0.8 or above?
Result: -1

Request: Item CC(C)(Oc1ccc(C2CC2(Cl)Cl)cc1)C(=O)O (stereo not drawn) [Ciprofibrate] with Euclidean distance of 0.8 or above?
Result: -1

----------
Catalogue of Euclidean distance values
- Tested on: 786-O
- protocol.text: Euclidean distance of Cell Painting phenotypic profile (signed KS, 77 features) to DMSO centroid (dimensionless distance); 5 or 10 uM (library dependent); higher = stronger phenotypic change vs DMSO (phenoactivity)
- conditions: 48 h
Structures can show the parent of a compound that is named as a salt.

Worked examples follow.
INSERT INTO assay_data (compound, value_kind, result) VALUES
  ('C[C@]1(c2nc3c(C(N)=O)cccc3[nH]2)CCCN1', 'Euclidean distance', 1.29),
  ('C[N+](C)(C)CCOC(=O)CCC(=O)OCC[N+](C)(C)C [Succinylcholine Chloride Dihydrate]', 'Euclidean distance', 1.36),
  ('CC(C)(C)NC(=O)[C@@H]1CN(Cc2cccnc2)CCN1C[C@@H](O)C[C@@H](Cc1ccccc1)C(=O)N[C@H]1c2ccccc2C[C@H]1O [Indinavir Sulfate]', 'Euclidean distance', 0.896),
  ('CCOCC(O)COc1ccc(NC(=O)CC[S+](C)C)cc1 (configuration not stated) [Suplatast Tosylate]', 'Euclidean distance', 1.48),
  ('COC(=O)C1=C(C)NC(C)=C(C(=O)OC2CCCN(Cc3ccccc3)C2)C1c1cccc([N+](=O)[O-])c1 (configuration not stated) [Benidipine HCl]', 'Euclidean distance', 1.39);

Note to self: Euclidean distance recorded for CCc1nn(CCCN2CCN(c3cccc(Cl)c3)CC2)c(=O)n1CCOc1ccccc1 [Nefazodone hydrochloride] was 1.29

Note to self: Euclidean distance recorded for `OC[C@@H](O)[C@@H](O)[C@H](O)[C@@H](O)CO` was 1.36

Note to self: Euclidean distance recorded for Cc1cncc(CN2CCC(=C3c4ccc(Cl)cc4CCc4cccnc43)CC2)c1 [Rupatadine Fumarate] was 1.51

Note to self: Euclidean distance recorded for Cc1cc(-c2ccccc2)nnc1NCCN1CCOCC1 [Minaprine dihydrochloride] was 0.893

Note to self: Euclidean distance recorded for `C[C@H]1[C@H](C)CC[C@]2(C(=O)O)CC[C@]3(C)C(=CC[C@@H]4[C@@]5(C)C[C@@H](O)[C@H](O)[C@@](C)(CO)[C@@H]5[C@H](O)C[C@]43C)[C@H]12` was 0.661

Note to self: Euclidean distance recorded for `Cc1ccc(NS(=O)(=O)c2cccc(C#N)c2)c2[nH]cc(C#N)c12` was 1.84

Note to self: Euclidean distance recorded for `CN1[C@@H]2CC[C@H]1C[C@@H](OC(=O)c1c[nH]c3ccccc13)C2` was 1.17

Note to self: Euclidean distance recorded for `COC[C@H]1C[C@@H](c2nc(-c3ccc4c(c3)COc3cc5c(ccc6nc([C@@H]7CC[C@H](C)N7C(=O)[C@@H](NC(=O)OC)C(C)C)[nH]c65)cc3-4)c[nH]2)N(C(=O)[C@H](NC(=O)OC)c2ccccc2)C1` was 1.14

Note to self: Euclidean distance recorded for CN(C)[C@@H](CCOc1cccc2ccccc12)c1ccccc1 [Dapoxetine HCl] was 1.49

Note to self: Euclidean distance recorded for C/C=C\c1ccc(OC)cc1 [cis-Anethole] was 0.571

Note to self: Euclidean distance recorded for `CC1=C(/C=C/C(C)=C/C=C/C(C)=C/C(=O)O)C(C)(C)CCC1` was 1.24

Note to self: Euclidean distance recorded for C#CCC(Cc1cnc2nc(N)nc(N)c2n1)c1ccc(C(=O)N[C@@H](CCC(=O)O)C(=O)O)cc1 (some centres not stated) [Pralatrexate] was 1.51

Note to self: Euclidean distance recorded for `Nc1nc(NC2CC2)c2ncn([C@H]3C=C[C@@H](CO)C3)c2n1` was 1.46

Note to self: Euclidean distance recorded for `O=C(/C=C\n1cnc(-c2cc(C(F)(F)F)cc(C(F)(F)F)c2)n1)NNc1cnccn1` was 2.36

Note to self: Euclidean distance recorded for `Cn1ccnc1S` was 1.71

Note to self: Euclidean distance recorded for `Cc1cn(-c2cc(NC(=O)c3ccc(C)c(Nc4nccc(-c5cnccn5)n4)c3)cc(C(F)(F)F)c2)cn1` was 1.61

Note to self: Euclidean distance recorded for `CSc1ccc(C(=O)/C=C/c2cc(C)c(OC(C)(C)C(=O)O)c(C)c2)cc1` was 1.24

Note to self: Euclidean distance recorded for CC1(C)S[C@@H]2[C@H](NC(=O)[C@H](N)c3ccccc3)C(=O)N2[C@H]1C(=O)O [Ampicillin Trihydrate] was 1.3

Note to self: Euclidean distance recorded for CNCCc1ccccn1 [Betahistine mesylate] was 0.848

Note to self: Euclidean distance recorded for `O=C(O)CCc1ccc(NCc2cccc(Oc3ccccc3)c2)cc1` was 1.31

Note to self: Euclidean distance recorded for `COc1ccc(CN(CCN(C)C)c2ncccn2)cc1` was 1.16

Note to self: Euclidean distance recorded for `CC(C)(Oc1ccc(Cl)cc1)C(=O)O` was 0.903
